target.or.system: murine class II MHC allele E^k on CH27 B cell lymphoma antigen presenting cells (murine)
method.description: cell-based or functional assay
observation.type: T cell proliferative response (HT-2 [3H]TdR uptake) at 0.73 nM

[in] Provide one value: measured T cell proliferative response (HT-2 [3H]TdR uptake) at 0.73 nM of Ac-LRMKLPKSAKPIAYLKQATAK-NH2 [Hybrid 5, Ac-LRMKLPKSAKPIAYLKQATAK-NH2]
[out] 30.1 thousands of cpm
